Target: 5-HT2A receptor (Homo sapiens, UniProt P28223)
Sequence (P28223 whole entry): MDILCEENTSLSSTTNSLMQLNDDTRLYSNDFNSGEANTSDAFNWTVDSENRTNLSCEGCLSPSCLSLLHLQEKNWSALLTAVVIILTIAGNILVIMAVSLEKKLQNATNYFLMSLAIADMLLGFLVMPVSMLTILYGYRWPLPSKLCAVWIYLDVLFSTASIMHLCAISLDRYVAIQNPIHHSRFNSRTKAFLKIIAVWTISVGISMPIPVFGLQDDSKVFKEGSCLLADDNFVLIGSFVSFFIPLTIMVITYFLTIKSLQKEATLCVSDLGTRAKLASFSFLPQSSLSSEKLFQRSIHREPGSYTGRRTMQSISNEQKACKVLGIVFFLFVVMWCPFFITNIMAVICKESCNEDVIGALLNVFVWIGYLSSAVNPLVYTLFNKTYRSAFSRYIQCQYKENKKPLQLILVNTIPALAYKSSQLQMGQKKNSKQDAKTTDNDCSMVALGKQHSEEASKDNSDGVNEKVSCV
Assay: Displacement of [3H]-Ketanserin from recombinant human 5-HT2AR expressed in HEKT cell membranes at 10 uM after 90 mins by scintillation counting method relative to control
Conditions: probe [3H]-Ketanserin
readout type: inhibition at 1.5 h, 10 µM (%)
Form entry: value (%) — number only.

Using the record for CCCCCCCCCCC[C@@H]1CCN[C@H](C(=O)NCC(O)CO)C1 (relative stereo) , report its inhibition at 1.5 h, 10 µM.
37.1

----------
Target: 5-hydroxytryptamine receptor 2C (Homo sapiens) (UniProt P28335)
Sequence (P28335 whole entry): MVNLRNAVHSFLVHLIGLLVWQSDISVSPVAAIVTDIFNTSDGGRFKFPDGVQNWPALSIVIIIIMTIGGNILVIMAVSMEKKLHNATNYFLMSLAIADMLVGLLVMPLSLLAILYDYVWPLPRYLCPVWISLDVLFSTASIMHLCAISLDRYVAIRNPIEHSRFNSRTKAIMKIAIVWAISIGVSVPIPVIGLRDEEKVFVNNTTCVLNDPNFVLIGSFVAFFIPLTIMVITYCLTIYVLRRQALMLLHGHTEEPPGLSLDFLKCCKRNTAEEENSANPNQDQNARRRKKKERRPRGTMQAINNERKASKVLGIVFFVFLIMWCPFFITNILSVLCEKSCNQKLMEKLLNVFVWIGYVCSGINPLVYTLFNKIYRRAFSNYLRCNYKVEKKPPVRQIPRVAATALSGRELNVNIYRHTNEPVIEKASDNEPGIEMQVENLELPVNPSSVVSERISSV
Experiment: Positive allosteric modulation of human 5-HT2CR expressed in CHO cells assessed as 5-HT-induced intracellular calcium release at 1 nM preincubated for 15 mins followed by 5-HT addition by calcium-4 dye based FLIPR assay (reference value: 100%)
Type: functional, cell-based
readout type: Emax (%)
Form entry: value (%) — number only.

Using the record for O=C(N[C@H](CO)[C@H](O)c1ccccc1)[C@@H]1C[C@H](CCC2CCCCC2)CCN1 , report its Emax.
96

Using the record for CCCCCCCCCCC[C@@H]1CCN[C@H](C(=O)NC[C@H](O)CCl)C1 , report its Emax.
114

Using the record for CC1CCC(CC[C@@H]2CCN[C@H](C(=O)N[C@@H](CO)[C@@H](O)c3ccccc3)C2)CC1 (stereo not given in full) , report its Emax.
107

Using the record for O=C(N[C@H](CO)[C@H](O)c1ccccc1)[C@H]1C[C@@H](C2CCCCC2)CCN1 , report its Emax.
104

Using the record for CCCCCCCCCCC[C@@H]1CCN[C@H](C(=O)O)C1 (relative stereo) , report its Emax.
109
